Every entry's value here was drawn from PubChem BioAssay AID1239.

# METHOD: activators of NF-kB expression in neurons, primary screen, cell-based, HTS (AID 1239)
# CONDITION SUMMARY: human neuronal cells, NF-kB reporter expression; at 12.5 µM
The whole screen tested about 190,000 compounds, of which about 3,100 (1.6%) were called active. Rule as the data show it: active = fold change above about 3.3; inconclusive = no clear call, values can overlap the other calls; inactive = below that. For the sample, actives were picked, then their nearest neighbours and some compounds at random.
Classes used: active, inactive

[
  {
    "COMPOUND": "C(=N\\Nc1ccc2ccccc2n1)/c1ccc2c(c1)OCO2",
    "CAT": "inactive"
  },
  {
    "COMPOUND": "Cn1cc([N+](=O)[O-])c(C(=O)Nc2cnn(Cc3ccc(F)cc3)c2)n1",
    "CAT": "inactive"
  },
  {
    "COMPOUND": "N/C(=N\\OC(=O)CCC1CCCCC1)c1ccccn1",
    "CAT": "active"
  },
  {
    "COMPOUND": "Cc1ccc(Cn2ccc(NC(=O)c3cc(C(C)C)on3)n2)cc1",
    "CAT": "inactive"
  },
  {
    "COMPOUND": "COc1cc(S(=O)(=O)N2CCOCC2)ccc1NC(=O)COc1ccc(N(C)S(=O)(=O)c2ccc(C)cc2)cc1",
    "CAT": "inactive"
  },
  {
    "COMPOUND": "Cc1ccccc1NCC(=O)N/N=C\\c1ccc([N+](=O)[O-])s1",
    "CAT": "inactive"
  },
  {
    "COMPOUND": "CCC(C)(NC(=O)c1ccccn1)C(=O)NC1CCCCC1 (centres undefined)",
    "CAT": "inactive"
  },
  {
    "COMPOUND": "CC(=O)Cc1nsc(NC(=O)c2csc3c2CCCC3)n1",
    "CAT": "inactive"
  },
  {
    "COMPOUND": "COC(=O)c1sc(NC(=O)c2csc3c2CCCC3)nc1C",
    "CAT": "active"
  },
  {
    "COMPOUND": "Cc1cc(C)nc(N/N=C/c2c(C)oc3ccccc23)n1",
    "CAT": "inactive"
  },
  {
    "COMPOUND": "O=C(Nc1ccc2nccnc2c1)c1ccco1",
    "CAT": "inactive"
  },
  {
    "COMPOUND": "CC(=O)Nc1ccn(Cc2c(F)cccc2Cl)n1",
    "CAT": "inactive"
  },
  {
    "COMPOUND": "N/C(=N\\OC(=O)CC1CCCCC1)c1ccccc1",
    "CAT": "inactive"
  },
  {
    "COMPOUND": "COC(=O)c1sccc1NC(=O)c1csc2c1CCCC2",
    "CAT": "inactive"
  }
]
